Hey, just so you know, these numbers are from PubChem BioAssay.

Test: thallium flux modulation in parental HEK cells, confirmation, counter-screen for KCC2 modulator project, cell-based, counterscreen 1 (AID 1716)
Conditions: HEK293 parental cells, thallium flux FluoZin2, ouabain; at 10 µM; baseline-ratio fluorescence slope, 10–20 s after thallium
The other results are listed elsewhere or left out. Inconclusive results are not listed. Activity calls are given as the source filed them.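 Rule for the calls: active = thallium flux rate significantly above the same plate's solvent-only control wells, beyond their mean plus 3 SD; inconclusive = the two replicate wells gave conflicting results; inactive = the rest.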
quantity.name: thallium flux rate (normalised fluorescence)

Parameter requested: thallium flux rate (normalised fluorescence). Apply to each item below.
1. N#Cc1c(-c2ccc(Cl)cc2)c2c([nH]c1=S)CCCC2
2. Cc1cccc(N(CC(O)CN(C)C)S(=O)(=O)c2ccccc2)c1 (stereo unspecified)
3. S=c1ccc2ccccc2[nH]1
4. Cc1nn(-c2ccccc2)c2sc(C(=O)N(Cc3ccco3)C(C)C(=O)NC(C)(C)C)cc12 (stereo unspecified)
5. CCn1c(=S)[nH]c2sc3c(c2c1=O)CCCCC3
6. Cc1cccc(NS(=O)(=O)c2ccc(C)c(C(N)=O)c2)c1

*A*
1. 0.0184 (active)
2. 0.00768 (inactive)
3. 0.0196 (active)
4. 0.00693 (inactive)
5. 0.0964 (active)
6. 0.00787 (inactive)
